- Tested on: Enterococcus faecalis (ATCC 29212)
- experiment_description: MIC susceptibility test, microdilution with MTT readout
- Type: cell-based
- experimental_setup: Enterococcus faecalis ATCC29212; read-out: MIC EF
parameter: MIC (µg/mL)
Write the value in µg/mL as a bare number.

Reference set, count: 5
compound	system_tested	MIC / µg/mL
CN[C@@H](CC(C)C)C(=O)N[C@H]1C(=O)N[C@@H](CC(N)=O)C(=O)N[C@H]2C(=O)NC3C(=O)N[C@H](C(=O)N[C@@H](C(=O)O)c4cc(O)cc(O)c4-c4cc3ccc4O)[C@H](O)c3ccc(c(Cl)c3)Oc3cc2cc(c3OC2OC(CSc3nnc(N)s3)C(O)C(O)C2OC2CC(C)(N)C(O)C(C)O2)Oc2ccc(cc2Cl)[C@H]1O (stereo partly drawn)	Enterococcus faecalis (ATCC 29212)	1.3
CN[C@@H](CC(C)C)C(=O)N[C@H]1C(=O)N[C@@H](CC(N)=O)C(=O)N[C@H]2C(=O)NC3C(=O)N[C@H](C(=O)N[C@@H](C(=O)O)c4cc(O)cc(O)c4-c4cc3ccc4O)[C@H](O)c3ccc(c(Cl)c3)Oc3cc2cc(c3OC2OC(CSc3nnc(C)c(O)n3)C(O)C(O)C2OC2CC(C)(NCc3ccc(-c4ccc(Cl)cc4)cc3)C(O)C(C)O2)Oc2ccc(cc2Cl)[C@H]1O (stereo partly drawn)	Enterococcus faecalis (ATCC 29212)	0.12
CN[C@@H](CC(C)C)C(=O)N[C@H]1C(=O)N[C@@H](CC(N)=O)C(=O)N[C@H]2C(=O)NC3C(=O)N[C@H](C(=O)N[C@@H](C(=O)O)c4cc(O)cc(O)c4-c4cc3ccc4O)[C@H](O)c3ccc(c(Cl)c3)Oc3cc2cc(c3OC2OC(CNN)C(O)C(O)C2OC2CC(C)(N)C(O)C(C)O2)Oc2ccc(cc2Cl)[C@H]1O (stereo partly drawn) [XLIV, Glucose-C6-hydrazine Vancomycin]	Enterococcus faecalis (ATCC 29212)	1.3
CN[C@@H](CC(C)C)C(=O)N[C@H]1C(=O)N[C@@H](CC(N)=O)C(=O)N[C@H]2C(=O)NC3C(=O)N[C@H](C(=O)N[C@@H](C(=O)O)c4cc(O)cc(O)c4-c4cc3ccc4O)[C@H](O)c3ccc(c(Cl)c3)Oc3cc2cc(c3OC2OC(CSc3ccc(Br)cc3)C(O)C(O)C2OC2CC(C)(N)C(O)C(C)O2)Oc2ccc(cc2Cl)[C@H]1O (stereo partly drawn)	Enterococcus faecalis (ATCC 29212)	1
CN[C@@H](CC(C)C)C(=O)N[C@H]1C(=O)N[C@@H](CC(N)=O)C(=O)N[C@H]2C(=O)NC3C(=O)N[C@H](C(=O)N[C@@H](C(=O)O)c4cc(O)cc(O)c4-c4cc3ccc4O)[C@H](O)c3ccc(c(Cl)c3)Oc3cc2cc(c3OC2OC(CSc3nc4cc(Cl)ccc4s3)C(O)C(O)C2OC2CC(C)(N)C(O)C(C)O2)Oc2ccc(cc2Cl)[C@H]1O (stereo partly drawn)	Enterococcus faecalis (ATCC 29212)	0.24

Note: attention shifts to another entry.
Query string: Query for Enterococcus faecalis (ATCC 29212): what MIC does the record show for CCCCCCCCCCNC1(C)CC(OC2C(Oc3c4cc5cc3Oc3ccc(cc3Cl)[C@@H](O)[C@@H](NC(=O)[C@H](CC(C)C)NC)C(=O)N[C@@H](CC(N)=O)C(=O)N[C@H]5C(=O)NC3C(=O)N[C@H](C(=O)N[C@@H](C(=O)O)c5cc(O)cc(O)c5-c5cc3ccc5O)[C@H](O)c3ccc(c(Cl)c3)O4)OC(CSc3nc4cc(Cl)ccc4s3)C(O)C2O)OC(C)C1O (stereo partly drawn) ?
Result string: 1.3
